- ASSAYED SYSTEM: neurokinin-1 (NK-1) receptor (Homo sapiens)
- Construct: a human glioblastoma-astrocytoma cell line that endogenously expresses the neurokinin-1 (NK-1) receptor; endogenous in cells; host or cells: U373 human glioblastoma-astrocytoma cells (membranes)
- Sequence (P25103 whole entry): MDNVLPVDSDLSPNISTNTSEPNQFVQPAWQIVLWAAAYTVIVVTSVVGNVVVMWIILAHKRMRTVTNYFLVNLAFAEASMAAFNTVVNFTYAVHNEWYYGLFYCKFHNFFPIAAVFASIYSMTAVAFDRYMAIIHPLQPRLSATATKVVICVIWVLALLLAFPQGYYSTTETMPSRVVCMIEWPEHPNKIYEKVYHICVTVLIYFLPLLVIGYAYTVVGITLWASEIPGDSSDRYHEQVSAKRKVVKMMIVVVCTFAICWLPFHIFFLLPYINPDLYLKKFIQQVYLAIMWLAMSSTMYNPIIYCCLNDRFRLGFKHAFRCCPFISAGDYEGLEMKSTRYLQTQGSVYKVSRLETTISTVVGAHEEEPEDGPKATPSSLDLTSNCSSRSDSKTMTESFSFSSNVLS
- ASSAY PROTOCOL: NK-1 Binding assay ([125I] Substance P competition, U373 cell membranes)
- ASSAY CONTEXT: Table 1; U373 membranes, [125I] Substance P displacement; read-out: NK-1 IC50
Can you tell me IC50 for the items I'm about to list?

Examples from the recorded data:
SMILES DATA: Cc1cccc(-c2cc(COCC3(c4ccccc4)CCNCC3)cc(C(F)(F)F)c2)c1
ASSAYED SYSTEM: neurokinin-1 (NK-1) receptor (Homo sapiens)
IC50: 0.01 to 100 nM
//
SMILES DATA: Fc1ccc(-c2cc(COCC3(c4ccccc4)CCNCC3)cc(C(F)(F)F)c2)cc1Cl
ASSAYED SYSTEM: neurokinin-1 (NK-1) receptor (Homo sapiens)
IC50: 0.01 to 100 nM
//
SMILES DATA: CN1CCC(COCc2cc(-c3ccc(C#N)cc3)cc(C(F)(F)F)c2)(c2ccc(F)cc2)CC1
ASSAYED SYSTEM: neurokinin-1 (NK-1) receptor (Homo sapiens)
IC50: 0.01 to 100 nM
//
SMILES DATA: FC(F)(F)c1cc(COCC2(c3ccccc3)CCNCC2)cc(-c2ccc(Cl)c(Cl)c2)c1
ASSAYED SYSTEM: neurokinin-1 (NK-1) receptor (Homo sapiens)
IC50: 0.01 to 100 nM

List IC50 for every entry below, keeping the order given.
1. COc1c(C)cc(-c2cc(COCC3(c4ccccc4)CCNCC3)cc(C(F)(F)F)c2)cc1C
2. FC(F)(F)c1cc(COCC2(c3ccccc3)CCNCC2)cc(-c2cccc3cccnc23)c1
3. COc1ccc(-c2nnn(C)n2)cc1COCC1(c2ccccc2)CCNCC1
4. FC(F)(F)c1cc(COCC2(c3ccccc3)CCNCC2)cc(-c2nccs2)c1

Result ::
1: 100 to 300 nM; 2: 100 to 300 nM; 3: > 300 nM; 4: 0.01 to 100 nM

* * *

Provide the reported IC50 of each item.
- ASSAYED SYSTEM: neurokinin-1 (NK-1) receptor (Homo sapiens)
- Construct: a human glioblastoma-astrocytoma cell line that endogenously expresses the neurokinin-1 (NK-1) receptor; endogenous in cells; host or cells: U373 human glioblastoma-astrocytoma cells (membranes)
- ASSAY PROTOCOL: NK-1 Binding assay ([125I] Substance P competition, U373 cell membranes)
- ASSAY CONTEXT: Table 1; U373 membranes, [125I] Substance P displacement; read-out: NK-1 IC50

SMILES DATA: FC(F)(F)c1cc(COCC2(c3ccccc3)CCNCC2)cc(-c2ccccc2-c2ccccc2)c1
IC50: > 300 nM
//
SMILES DATA: Cc1ccccc1-c1cc(COCC2(c3ccccc3)CCNCC2)cc(C(F)(F)F)c1
IC50: 100 to 300 nM
//
SMILES DATA: FC(F)(F)c1cc(COCC2(c3ccccc3)CCNCC2)cc(-c2c(Cl)cccc2Cl)c1
IC50: 100 to 300 nM
//
SMILES DATA: C[C@@H](OCC1(c2ccccc2)CCNCC1)c1cc(-c2ccc(C#N)cc2)cc(C(F)(F)F)c1
IC50: 0.01 to 100 nM
//
SMILES DATA: Fc1cc(-c2cc(COCC3(c4ccccc4)CCNCC3)cc(C(F)(F)F)c2)ccc1-c1ccccc1
IC50: > 300 nM

Provide IC50 for all items below, preserving their order.
1. FC(F)(F)c1cc(COCC2(c3ccccc3)CCNCC2)cc(-c2ccc(Cl)nc2Cl)c1
2. N#Cc1ccc(-c2cc(Br)cc(COCC3(c4ccccc4)CCNCC3)c2)cc1
3. Fc1ccccc1-c1cc(COCC2(c3ccccc3)CCNCC2)cc(C(F)(F)F)c1

Result ::
1. 0.01 to 100 nM
2. 0.01 to 100 nM
3. 0.01 to 100 nM
